Tested on: CP201
ASSAY DETAILS: qHTS profiling for inhibitors of Plasmodium falciparum proliferation (AID 504749); note: nearly all actives have a fitted effect of over 60% in size
MEASUREMENT SETUP: P. falciparum in erythrocytes, SYBR Green DNA, 72 h; series mostly up to 28.7 µM
Results filed as inconclusive are left out. Activity calls are given as the source filed them. Calls come from the whole dose curve; as a rule, active = well fitted inhibition curve with a large enough effect; inconclusive = small, poorly fitted or top-dose-only effect; inactive = flat fitted curve, though single readings scatter.
EXPERIMENTAL READOUT: outcome

// known answers, use as guide
INSERT INTO results (compound, experimental_readout, measured_value) VALUES
  ('O=C(O)c1ccccc1C(=O)Nc1ccc(S(=O)(=O)Nc2nccs2)cc1', 'outcome', 'inactive'),
  ('CC(=O)Nc1ccccc1', 'outcome', 'inactive'),
  ('CCc1nnc(NS(=O)(=O)c2ccc(N)cc2)s1', 'outcome', 'inactive'),
  ('CCN(CC)CCc1nc(-c2ccccc2)no1', 'outcome', 'inactive'),
  ('O=c1[nH]c(=O)c2ccccc2o1', 'outcome', 'inactive');

In: Look up outcome: "O=C1c2ccccc2C(=O)C1c1ccc(Br)cc1"
Out: inactive

In: Same for "O=C(O)c1ccccc1OP(=O)(O)O"
Out: inactive

In: Same for "Cc1ccccc1N=Nc1ccc(N=Nc2c(O)ccc3ccccc23)c(C)c1"
Out: inactive

In: Same for "CC1CCN(CCCC(=O)c2ccc(F)cc2)CC1"
Out: inactive

In: Same for "CC[N+](C)(CC)CCOC(=O)C1c2ccccc2Oc2ccccc21"
Out: inactive

In: Same for "NNC(=O)CP(=O)(c1ccccc1)c1ccccc1"
Out: inactive

In: Same for "Nc1ccncc1N"
Out: inactive

In: Same for "OCc1ccc(Cl)cc1Cl"
Out: inactive

* * *

TARGET OR TEST SYSTEM: Calcium and integrin-binding protein 1 (Homo sapiens)
ASSAY DETAILS: Primary qHTS for Identification of Calcium Integrin Binding Protein 1 (CIB1) Competitor (AID 1508620);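 note: GST tagged CIB1 binding a fluorescein labelled alphaIIb integrin peptide tracer; top concentration of the series differs between compounds; % is set by controls: 0 for no effect and ±100 for the full control effect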
MEASUREMENT SETUP: CIB1-GST / FITC-alphaIIb peptide fluorescence polarization; series mostly up to 114 µM
Inconclusive results are not listed. Calls of active or inactive are those of the source. The call rests on the fitted dose curve; in most records, active means well fitted inhibition curve with a large enough effect; inconclusive means small, poorly fitted or top-dose-only effect; inactive means flat fitted curve, though single readings scatter.
EXPERIMENTAL READOUT: activity change, negative = inhibition

INSERT INTO measurements (compound, experimental_readout, measured_value) VALUES
  ('Cc1c(C(=O)NCCO)[n+](=O)c2ccccc2n1[O-]', 'activity change, negative = inhibition', 'inactive'),
  ('NC(N)=NCCN1CCCCCCC1', 'activity change, negative = inhibition', '-2.06% [at 1.07 µM] (inactive)'),
  ('O=C(CN1CCNCC1)NC1CCCCC1', 'activity change, negative = inhibition', 'inactive'),
  ('Cc1ccc(S(=O)(=O)NC(=O)NC2CCCCCCC2)cc1', 'activity change, negative = inhibition', 'inactive'),
  ('COc1cc(C(=O)NCCCCCC(=O)O)cc(OC)c1OC', 'activity change, negative = inhibition', 'inactive'),
  ('CC(=O)N[C@@H](Cc1ccc(O)cc1)C(=O)O', 'activity change, negative = inhibition', 'inactive'),
  ('O[C@@H]1CO[C@H]2[C@@H]1OC[C@@H]2O', 'activity change, negative = inhibition', 'inactive'),
  ('CC(C)c1cc2c(cc1S(=O)(=O)O)[C@@]1(C)CCC[C@@](C)(C(=O)O)[C@@H]1CC2', 'activity change, negative = inhibition', 'inactive');

In: Requested read-out activity change, negative = inhibition, target or system Calcium and integrin-binding protein 1 (Homo sapiens), entry "Cc1ncc(CO)c(CN)c1O"
Out: inactive

In: Same for "NNc1nnc(NN)c2ccccc12"
Out: inactive

In: Same for CC(=O)N(CC(O)CN(C(C)=O)c1c(I)c(C(=O)NCC(O)CO)c(I)c(C(=O)NCC(O)CO)c1I)c1c(I)c(C(=O)NCC(O)CO)c(I)c(C(=O)NCC(O)CO)c1I (stereo not drawn)
Out: inactive

In: Same for "CCS(=O)(=O)CCn1c([N+](=O)[O-])cnc1C"
Out: inactive

In: Same for "Cc1cccc(C)c1NC(=O)CC12CCCN1CCC2"
Out: inactive

* * *

System: CP268
ASSAY DETAILS: qHTS profiling for inhibitors of Plasmodium falciparum proliferation (AID 504749); note: nearly all actives have a fitted effect of over 60% in size
MEASUREMENT SETUP: P. falciparum in erythrocytes, SYBR Green DNA, 72 h; series mostly up to 28.7 µM
Results filed as inconclusive are left out. Activity calls are given as the source filed them. Calls follow the shape of the dose curve; as a rule, active = well fitted inhibition curve with a large enough effect; inconclusive = small, poorly fitted or top-dose-only effect; inactive = flat fitted curve, though single readings scatter.
EXPERIMENTAL READOUT: outcome

// known answers, use as guide
INSERT INTO results (compound, target_or_test_system, experimental_readout, measured_value) VALUES
  ('COc1ccccc1OC(=O)Oc1ccccc1OC', 'CP268', 'outcome', 'inactive'),
  ('Cc1[nH]c(C)c(Cl)c(=O)c1Cl', 'CP268', 'outcome', 'inactive'),
  ('COc1nccnc1NS(=O)(=O)c1ccc(N)cc1', 'CP268', 'outcome', 'inactive'),
  ('O=C(OOC(=O)c1ccccc1)c1ccccc1', 'CP268', 'outcome', 'inactive'),
  ('CCN(CC)CC1CCCCN1CC(=O)N1c2ccccc2C(=O)Nc2cccnc21 (centres undefined)', 'CP268', 'outcome', 'inactive');

In: Look up outcome: CC(O)CCCCn1c(=O)c2c(ncn2C)n(C)c1=O (centres undefined)
Out: inactive

In: Same for "COC(=O)c1ccccc1C(=O)c1ccc(OCCN2CCCCC2)cc1"
Out: inactive

In: Same for "CC(C)(C)C(=O)OCOC(=O)[C@@H]1N2C(=O)[C@@H](NC(=O)[C@H](N)c3ccccc3)[C@H]2SC1(C)C"
Out: inactive

In: Same for "Cc1onc(-c2ccccc2)c1-c1ccc(S(N)(=O)=O)cc1"
Out: inactive

In: Same for "O=C(NCCCN1CCOCC1)c1ccc(Cl)cc1"
Out: inactive

In: Same for CC(C)CCCC(C)CCCC(C)CCCCC(C)CCCC(C)CCCC(C)C (centres undefined)
Out: inactive

In: Same for CCCCCC(C)N (centres undefined)
Out: inactive

In: Same for "O=C(O)c1cc(=O)c2ccccc2o1"
Out: inactive

In: Same for "COc1ccccc1Oc1c(NS(=O)(=O)c2ccc(C(C)(C)C)cc2)nc(-c2ncccn2)nc1OCCO"
Out: inactive

In: Same for "CCc1nnc(NS(=O)(=O)c2ccc(N)cc2)s1"
Out: inactive

In: Same for "CCOC(=O)[C@H](CCc1ccccc1)N[C@@H](C)C(=O)N1CCC[C@H]1C(=O)O"
Out: inactive

In: Same for "COC(=O)c1cccnc1"
Out: inactive

In: Same for "CC(C)C[C@@H](N)C(=O)O"
Out: inactive

In: Same for NC(=O)CCCCC1CCSS1 (centres undefined)
Out: inactive

In: Same for "C[C@@H]1O[C@@H](OC[C@H]2O[C@@H](Oc3c(-c4ccc(O)c(O)c4)oc4cc(O)cc(O)c4c3=O)[C@H](O)[C@@H](O)[C@@H]2O)[C@H](O)[C@H](O)[C@H]1O"
Out: inactive

In: Same for "C[C@@H](N)C(=O)O"
Out: inactive

In: Same for "O=C(O)c1ccc[n+]([O-])c1"
Out: inactive

In: Same for "CCCCC1(COC(=O)CCC(=O)O)C(=O)N(c2ccccc2)N(c2ccccc2)C1=O"
Out: inactive

In: Same for CCCCCCCCCCCCCCCCC(C(=O)O)C(O)(CC(=O)O)C(=O)O (centres undefined)
Out: inactive

* * *

System: HB3
ASSAY DETAILS: qHTS profiling for inhibitors of Plasmodium falciparum proliferation (AID 504749); note: nearly all actives have a fitted effect of over 60% in size
MEASUREMENT SETUP: P. falciparum in erythrocytes, SYBR Green DNA, 72 h; series mostly up to 28.7 µM
Records with an inconclusive call do not appear. The source made the active and inactive calls. Calls follow the shape of the dose curve; as a rule, active = well fitted inhibition curve with a large enough effect; inconclusive = small, poorly fitted or top-dose-only effect; inactive = flat fitted curve, though single readings scatter.
Use one of these outcomes when replying: 1 (yes) = active, 0 (no) = inactive

In: Record request — test call for "CC(C)=CCC/C(C)=C/CO"
Out: 0 (no)

In: Same for O=C(O)CCCCC1CCSS1 (configuration not stated)
Out: 0 (no)

In: Same for "NS(=O)(=O)c1ccc(C(=O)O)cc1"
Out: 0 (no)

In: Same for "CC[N+](C)(CC)CCOC(=O)C1c2ccccc2Oc2ccccc21"
Out: 0 (no)

In: Same for "Cc1onc(-c2ccccc2)c1-c1ccc(S(N)(=O)=O)cc1"
Out: 0 (no)

In: Same for "CC1CCN(CCCC(=O)c2ccc(F)cc2)CC1"
Out: 0 (no)

In: Same for "Nc1c2c(nc3c1CCC3)CCCC2"
Out: 1 (yes)

* * *

For each record, write down the corresponding max response.
Test system: CRL-7250
ASSAY DETAILS: Cytotoxic Profiling of Annotated Libraries Using Quantitative High-Throughput Screening (AID 1296008); note: % is set by controls: 0 for no effect and ±100 for the full control effect; nearly all actives have a fitted effect of over 60% in size
MEASUREMENT SETUP: Five cell lines viability, CellTiter-Glo ATP luminescence, 48-72 h; stronger effect = lower value
Records with an inconclusive call do not appear.
Numbers only here, please. The scale is %.

In: Look up max response: CN1C(=O)CC(c2ccccc2)C1=O (configuration not stated)
Out: 1.89

In: Same for "Cc1cc(NC(=O)C2=C(O)c3ccccc3S(=O)(=O)N2C)no1"
Out: -9.44

In: Same for C[N+](C)(C)CC(O)CC(=O)[O-] (configuration not stated)
Out: -9.06

In: Same for "Cc1cc(=O)[nH]c(=S)[nH]1"
Out: 1.13

In: Same for "CC(=O)Nc1ccc(C(=O)O)cc1"
Out: -0.409

In: Same for "O=C(Cn1ccnc1[N+](=O)[O-])NCCO"
Out: 1.72

In: Same for "Cn1c(=O)c2c(ncn2CCO)n(C)c1=O"
Out: -4.29

In: Same for "O=C(Cn1ccnc1[N+](=O)[O-])NCc1ccccc1"
Out: 0.299

In: Same for "CCN(CC)CCOC(=O)C(c1ccccc1)c1ccccc1"
Out: 4.76

In: Same for "CC(=O)N[C@@H](Cc1ccc(O)cc1)C(=O)O"
Out: -1.56

In: Same for "CNc1c2c(nn1C)CCCC2"
Out: 2.3

In: Same for "CC(=O)Nc1ccccc1"
Out: 2.87

In: Same for "O=C(O)c1cc(=O)c2ccccc2o1"
Out: 2.58

In: Same for "CCOc1ccc(C(=O)OCCN(CC)CC)cc1"
Out: -0.597

In: Same for CCOC(=O)OC(C)OC(=O)[C@@H]1N2C(=O)[C@@H](NC(=O)[C@H](N)c3ccccc3)[C@H]2SC1(C)C (some centres not stated)
Out: -4.78

In: Same for "O=C1c2cccc(O)c2C(=O)c2c(O)cccc21"
Out: -1.24

In: Same for "O=C(CN1CCNCC1)NC1CCCCC1"
Out: -5.07

In: Same for "COC(=O)N/N=C/c1c[n+]([O-])c2ccccc2[n+]1[O-]"
Out: 4.42

In: Same for "Cc1cccc(C)c1NC(=O)CC12CCCN1CCC2"
Out: 2.63

In: Same for "CCOC(=O)[C@H](CCc1ccccc1)N[C@@H](C)C(=O)N1CCC[C@H]1C(=O)O"
Out: 2.02

In: Same for C[N+]1(C)CCCC(OC(=O)C(O)(c2ccccc2)c2ccccc2)C1 (configuration not stated)
Out: 2.14

In: Same for NCC1CCC(C(=O)Oc2ccc(CCC(=O)O)cc2)CC1 (configuration not stated)
Out: -11.6

In: Same for CN[C@@H]1[C@@H](O)[C@@H](O[C@@H]2[C@H](O)[C@H](O[C@H]3OC(CN)=CC[C@H]3N)[C@@H](N)C[C@H]2N)OCC1(C)O (some centres not stated)
Out: 2.42

In: Same for "CNCc1ccccc1"
Out: 4.71

In: Same for "C[C@@H](N)C(=O)O"
Out: 0.494

In: Same for Cc1ccc2c(c1)c1c3n2CCNC3CCC1 (configuration not stated)
Out: -2.33

In: Same for "Cc1c(I)c(=O)n(-c2ccccc2)n1C"
Out: 1.27

In: Same for CC(O)CCCCn1c(=O)c2c(ncn2C)n(C)c1=O (configuration not stated)
Out: 2.98

In: Same for "CC(=O)OC[C@H]1O[C@@](COC(C)=O)(O[C@H]2O[C@H](COC(C)=O)[C@@H](OC(C)=O)[C@H](OC(C)=O)[C@H]2OC(C)=O)[C@@H](OC(C)=O)[C@@H]1OC(C)=O"
Out: 4.32

In: Same for "Nc1ccncc1N"
Out: -6.31

In: Same for "O=C1CC[C@@H](C(=O)O)N1"
Out: 1.58

In: Same for "O=C(O)c1ccccc1OP(=O)(O)O"
Out: 3.34

In: Same for "O=C(O)Cc1ccc(CCNS(=O)(=O)c2ccc(Cl)cc2)cc1"
Out: 2.04

In: Same for "NS(=O)(=O)c1ccc(NC(=O)CCC(=O)O)cc1"
Out: -4.29

In: Same for "CCCCCCCC(=O)OCC(COC(=O)CCCCCCC)OC(=O)CCCCCCC"
Out: -3.96

In: Same for "CCN[C@H]1CN(CCCOC)S(=O)(=O)c2sc(S(N)(=O)=O)cc21"
Out: 2.64

In: Same for "O=C(NCCCN1CCOCC1)c1ccc(Cl)cc1"
Out: -10.4
